Origin of measurements: PubChem BioAssay (NCI)

Test system: EKVX NSCLC
assay notes: NCI-60 one-dose screen, 48 h (100 = growth as untreated, 0 = no growth, -100 = all killed)
experimental parameters: 10 µM unless noted
This is part of a sample that, as a whole, favours compounds with a hit. Of some 83,000 tested, about 20% had one in any assay. Calls of active or inactive are those of the source. How the source made its calls: active means growth percent below 10; inactive means the rest.
observable: growth

[[record]]
compound = "CN1CCN(c2ccc(Cl)cc2)CC1"
result = "107% (inactive)"

[[record]]
compound = "O=P1(N(CCCl)CCCl)NCCCO1 (centres undefined)"
result = "101% (inactive)"

[[record]]
compound = "C[C@]12C[C@H](c3ccoc3)OC(=O)[C@H]1CC[C@@]1(C)[C@@H]2[C@H]2C=C[C@]1(O)C(=O)O2"
result = "95.4% (inactive)"

[[record]]
compound = "C[C@@H]1C/C=C\\C(=O)O[C@H](/C=C/C#C/C=C/C(C)(C)[C@@H](O)c2cccc(O)c2Br)[C@@H](C)/C=C/[C@H](C)C[C@H](OC(N)=O)C1"
result = "22% (inactive)"

[[record]]
compound = "CNC(=O)O/N=C(\\SC)C(=O)N(C)C"
result = "112% (inactive)"

[[record]]
compound = "COc1ccc(O)c2c(=O)c3c(OC)cc4c(c3oc12)[C@@H]1C=CO[C@@H]1O4"
result = "6.71% (active)"

[[record]]
compound = "C=CC[PH+](c1ccccc1)c1ccccc1.C=CC[PH+](c1ccccc1)c1ccccc1.[Pt+2].[S-]c1ncccn1.[S-]c1ncccn1"
result = "2.19% (active)"

[[record]]
compound = "C/C(=C(\\c1ccc(OCCN2CCOCC2)cc1)c1ccc(OC(=O)Cc2ccccc2)cc1)c1ccc(Cl)cc1"
result = "95.4% (inactive)"

[[record]]
compound = "C[C@]12CC[C@H]3[C@@H](CC=C4c5nc(N)sc5CC[C@@]43C)[C@@H]1CC[C@@H]2O"
result = "101% (inactive)"

